target: Mitogen-activated protein kinase 6 (Homo sapiens, UniProt Q16659); test: Binding affinity to recombinant wild-type ERK3 (9 to 327 residues) (unknown origin) expressed in Escherichia coli by microscale thermophoresis assay
Sequence (Q16659 whole entry, the tested form may be a part): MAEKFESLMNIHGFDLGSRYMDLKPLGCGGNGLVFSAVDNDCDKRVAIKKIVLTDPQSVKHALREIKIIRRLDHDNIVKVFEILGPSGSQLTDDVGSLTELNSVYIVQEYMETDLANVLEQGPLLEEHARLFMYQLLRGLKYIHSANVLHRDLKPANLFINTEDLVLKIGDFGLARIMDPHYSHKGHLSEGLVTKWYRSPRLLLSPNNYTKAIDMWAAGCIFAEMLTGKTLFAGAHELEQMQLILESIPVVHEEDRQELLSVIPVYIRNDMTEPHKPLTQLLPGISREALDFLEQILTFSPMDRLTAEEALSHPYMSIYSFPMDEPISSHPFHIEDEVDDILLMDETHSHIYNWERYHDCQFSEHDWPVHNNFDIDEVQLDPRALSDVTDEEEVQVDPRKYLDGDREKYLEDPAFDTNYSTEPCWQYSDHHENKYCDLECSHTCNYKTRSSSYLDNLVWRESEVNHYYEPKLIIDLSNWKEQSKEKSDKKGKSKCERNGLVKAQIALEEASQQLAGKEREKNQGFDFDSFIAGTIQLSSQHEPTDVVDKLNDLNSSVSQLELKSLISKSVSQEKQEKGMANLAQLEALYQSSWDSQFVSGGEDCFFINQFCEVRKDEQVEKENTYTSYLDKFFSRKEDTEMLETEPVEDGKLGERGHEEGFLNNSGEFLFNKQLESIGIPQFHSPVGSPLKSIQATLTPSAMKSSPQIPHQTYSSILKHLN
pKd: −log10 of the molar value.
PROPERTY NAME: pKd

A. O=C(Nc1ccc2[nH]nc(-c3ccncc3)c2c1)[C@@H]1CCN(CC(=O)N2CCN(c3ccc(-c4ncccn4)cc3)CC2)C1
B. COc1ccc(-n2nnc3cnc(N[C@H]4CC[C@H](C(N)=O)CC4)nc32)cc1
input: Param metric = pKd; output whichever of A , B has the minimum value. Your choice should be expressed through its label.
output: A

---

molecular target: Mitogen-activated protein kinase 6 (Homo sapiens); assay: Binding affinity to wild-type human partial length ERK3 (M1 to P413 residues) expressed in bacterial expression system by kinomescan method
PROPERTY NAME: Kd (nM)
Express your answer in nM, writing the number without its unit.

input: Which Kd value belongs to COc1ccc(-n2nnc3cnc(N[C@H]4CC[C@H](C(N)=O)CC4)nc32)cc1 ?
output: 980

---

target: Mitogen-activated protein kinase 6 (Homo sapiens); assay: Binding affinity to recombinant wild-type ERK3 (9 to 327 residues) (unknown origin) expressed in Sf21 insect cells by microscale thermophoresis assay
PROPERTY NAME: Kd (nM)
Express your answer in nM, writing the number without its unit.

input: Which Kd value belongs to COc1ccc(-n2nnc3cnc(N[C@H]4CC[C@H](C(N)=O)CC4)nc32)cc1 ?
output: 1100
